# Assay overview: Ex vivo biodistribution of 177Lu-labeled ligands in PC-3 tumor-bearing mice
# Condition label: mouse, kidneys, intravenous, 4 h pi, n = 5; read-out: Kidneys uptake

| Compound | Readout units | tissue uptake at 4 h |
| --- | --- | --- |
| CC(C)C[C@@H](CN1CC(F)(F)C[C@H]1C(N)=O)NC(=O)[C@H](Cc1c[nH]cn1)NC(=O)CN(C)C(=O)[C@@H](NC(=O)[C@H](C)NC(=O)[C@H](Cc1c[nH]c2ccccc12)NC(=O)[C@H](CCC(N)=O)NC(=O)[C@@H](Cc1ccccc1)NC(=O)CN1CCC(NC(=O)CN2CCN(CC(=O)O)CCN(CC(=O)O)CCN(CC(=O)O)CC2)CC1)C(C)C [[^177Lu]Lu-LW02080, metal not drawn] | %ID/g | 1.88 |
| CC(C)C[C@H](NC(=O)[C@H](Cc1cnc[nH]1)N(C)C(=O)CNC(=O)[C@@H](NC(=O)[C@H](C)NC(=O)[C@H](Cc1c[nH]c2ccccc12)NC(=O)[C@H](CCC(N)=O)NC(=O)[C@@H](Cc1ccccc1)NC(=O)CN1CCC(NC(=O)CN2CCN(CC(=O)O)CCN(CC(=O)O)CCN(CC(=O)O)CC2)CC1)C(C)(C)C)C(=O)N1CC(F)(F)C[C@H]1C(N)=O [[^177Lu]Lu-LW02060, metal not drawn] | %ID/g | 2.85 |
